- assay-target: T1, human PCSK9 (proprotein convertase subtilisin kexin type 9) (human, UniProt Q8NBP7 31-692)
- T1 construct: Directly immobilized (SPR ProteOn), biotinylated (BLI), or in solution, depending on the assay; also called hPCSK9
- T1 sequence (Q8NBP7 31-692 limits assumed): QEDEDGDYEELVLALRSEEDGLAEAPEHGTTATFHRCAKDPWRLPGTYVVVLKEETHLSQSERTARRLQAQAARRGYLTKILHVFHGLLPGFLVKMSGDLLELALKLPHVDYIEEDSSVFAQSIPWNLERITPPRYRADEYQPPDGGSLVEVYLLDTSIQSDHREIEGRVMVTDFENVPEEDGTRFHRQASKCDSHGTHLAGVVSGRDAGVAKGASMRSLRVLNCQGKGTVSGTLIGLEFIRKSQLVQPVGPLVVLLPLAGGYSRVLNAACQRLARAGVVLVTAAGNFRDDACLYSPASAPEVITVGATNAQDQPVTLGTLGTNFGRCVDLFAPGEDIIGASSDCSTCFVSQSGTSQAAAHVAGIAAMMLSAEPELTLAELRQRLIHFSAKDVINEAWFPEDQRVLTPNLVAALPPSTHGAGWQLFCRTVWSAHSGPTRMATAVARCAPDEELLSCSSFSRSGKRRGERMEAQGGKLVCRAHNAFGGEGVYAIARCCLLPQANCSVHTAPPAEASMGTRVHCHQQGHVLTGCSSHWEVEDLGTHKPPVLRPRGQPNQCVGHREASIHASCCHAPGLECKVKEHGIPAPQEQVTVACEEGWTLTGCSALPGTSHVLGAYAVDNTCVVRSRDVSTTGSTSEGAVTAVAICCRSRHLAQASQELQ
- measurement-description: BLI, biotinylated hPCSK9 on sensor tips
Known kon of a selection of binders
// note: answer is a bare numeric in M⁻¹ s⁻¹

>>> reading("2382E03 (designed binder, Anti-PCSK9 Adnectin, His6-tagged) MGVSDVPRDLEVVAATPTSLLISWDAPAGDGYGYYRITYGETGGNSPVQEFTVPVSKGTATISGLKPGVDYTITVYAVEFDFPGAGYYHRPISINYRTEIDKPSQHHHHHH")
220000

Input: Data request, read-out kon, for 2382C05 (designed binder, Anti-PCSK9 Adnectin, His6-tagged) MGVSDVPRDLEVVAATPTSLLISWDAPADGAYGYYRITYGETGGNSPVQEFTVPVSKGTATISGLKPGVDYTITVYAVEYSFPGAGYYHRPISINYRTEIDKPSQHHHHHH
Output: 368000
